- assayed target: T1, human CCR8 (Homo sapiens, UniProt P51685)
- T1 construct: expressed in transfected cells; host or cells: 293 cells
- assay: Neutralizing activity: inhibition of Ca2+ influx by 200 nM hCCL1 in human CCR8 expressing 293 cells (FLIPR), Test Example 6
- Type: cell-based
- condition set: Table 9; WT IC50/mutant IC50; humanized 10A11 heavy chain CDR mutants, IGKV4-1/IGHV3-73
Task for the reader: assign each of the following molecules its reported IC50 ratio.
Numbers only.

Some solved cases for reference:
molecule	numeric result
h10A11 (IGKV4-1/IGHV3-73 S62T): humanized 10A11 heavy chain CDR point mutant (antibody, V domains shown) VL: DIVMTQSPDSLAVSLGERATINCRSSKSLLHSNGNTYLYWYQQKPGQPPKLLIYRMSNLASGVPDRFSGSGSGTDFTLTISSLQAEDVAVYYCMQHLEYPLTFGQGTKLEIKRT VH: EVQLVESGGGLVQPGGSLKLSCAASGFAFNTYALYWVRQASGKGLEWVGRIRSKSNNYATYYADTVKDRFTISRDDSKNTAYLQMNSLKTEDTAVYYCTRARFYYSDYGYAMDYWGQGTLVTVSS	1.60
h10A11 (IGKV4-1/IGHV3-73 Y100bF): humanized 10A11 heavy chain CDR point mutant (antibody, V domains shown) VL: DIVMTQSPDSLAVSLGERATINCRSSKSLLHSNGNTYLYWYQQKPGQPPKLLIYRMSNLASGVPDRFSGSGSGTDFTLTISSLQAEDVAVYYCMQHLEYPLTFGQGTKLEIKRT VH: EVQLVESGGGLVQPGGSLKLSCAASGFAFNTYALYWVRQASGKGLEWVGRIRSKSNNYATYYADSVKDRFTISRDDSKNTAYLQMNSLKTEDTAVYYCTRARFYYSDFGYAMDYWGQGTLVTVSS	0.75
h10A11 (IGKV4-1/IGHV3-73 S52aT): humanized 10A11 heavy chain CDR point mutant (antibody, V domains shown) VL: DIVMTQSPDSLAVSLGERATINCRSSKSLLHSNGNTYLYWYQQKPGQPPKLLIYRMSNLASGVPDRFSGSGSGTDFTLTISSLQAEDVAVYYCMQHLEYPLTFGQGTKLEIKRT VH: EVQLVESGGGLVQPGGSLKLSCAASGFAFNTYALYWVRQASGKGLEWVGRIRTKSNNYATYYADSVKDRFTISRDDSKNTAYLQMNSLKTEDTAVYYCTRARFYYSDYGYAMDYWGQGTLVTVSS	0.22
h10A11 (IGKV4-1/IGHV3-73 S100T): humanized 10A11 heavy chain CDR point mutant (antibody, V domains shown) VL: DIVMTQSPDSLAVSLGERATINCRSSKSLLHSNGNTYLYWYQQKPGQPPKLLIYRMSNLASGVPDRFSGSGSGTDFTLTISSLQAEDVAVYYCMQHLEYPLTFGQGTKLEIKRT VH: EVQLVESGGGLVQPGGSLKLSCAASGFAFNTYALYWVRQASGKGLEWVGRIRSKSNNYATYYADSVKDRFTISRDDSKNTAYLQMNSLKTEDTAVYYCTRARFYYTDYGYAMDYWGQGTLVTVSS	0.64

Just so you know, measured IC50 ratio for h10A11 (IGKV4-1/IGHV3-73 I51L): humanized 10A11 heavy chain CDR point mutant (antibody, V domains shown) VL: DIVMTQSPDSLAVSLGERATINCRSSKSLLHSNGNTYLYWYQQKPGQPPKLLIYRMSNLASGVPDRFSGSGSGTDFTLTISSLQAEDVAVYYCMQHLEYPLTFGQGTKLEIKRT VH: EVQLVESGGGLVQPGGSLKLSCAASGFAFNTYALYWVRQASGKGLEWVGRLRSKSNNYATYYADSVKDRFTISRDDSKNTAYLQMNSLKTEDTAVYYCTRARFYYSDYGYAMDYWGQGTLVTVSS came out at 0.22
